Target: Human α-thrombin (Homo sapiens)
Construct: Human α-thrombin; purchased Sigma Chemical Co. or Hematologic Technologies
Assay: Test A: Determination of Thrombin Inhibition with a Chromogenic, Robotic Assay
Type: biochemical
Details: chromogenic substrate S-2366 0.30 mmol/L, α-thrombin 0.020 NIHU/mL, 40 minutes incubation at 37° C.
Where a name gives a salt, the structure may show the parent alone.
Could you please mark yes (1) for values of IC50 below 300 nM and no (0) for values at or above it?

O=C(NCc1cc(Cl)ccc1-n1cnnn1)[C@@H]1[C@H]2C[C@H]2CN1C(=O)[C@H]1COCCN1 [Example 75, acetate]: no (0)
O=C(NCc1cc(Cl)ccc1-n1cnnn1)[C@@H]1C[C@@H]2C[C@@H]2N1C(=O)C1(O)CCCc2ncccc21 (some centres unmarked) [Example 77]: yes (1)
CC(C)(C)OC[C@@H](N)C(=O)N1C[C@@H]2C[C@@H]2[C@H]1C(=O)NCc1cc(Cl)ccc1-n1cnnn1 [Example 54, acetate]: yes (1)
CC(C)(C)C[C@@H](N)C(=O)N1[C@@H]2C[C@@H]2C[C@H]1C(=O)NCc1cc(Cl)ccc1-n1cnnn1 [Example 19, hydrochloride]: yes (1)
O=C([C@H](O)Cc1ccccc1)N1CC2CC1(C(=O)NCc1cc(Cl)ccc1-n1cnnn1)C2 [Example 29]: yes (1)
